Tested on: 3798 S. aureus (GISA)
Assay: MIC, broth microdilution in Meuller-Hinton broth (NCCLS)
Type: cell-based, Staphylococus aureus
Conditions: glycopeptides-intermediate clinical isolate
quantity_kind: MIC 3798 S. aureus (GISA) (µg/mL)
# number only, unit µg/mL dropped from output

Query block: Value lookup for MIC 3798 S. aureus (GISA); key = CCCCCCCCCCN(CCCCCCCCCC)CC(=O)NC1(C)CC(OC2C(Oc3c4cc5cc3Oc3ccc(cc3Cl)C(O)C(NC(=O)C(CC(C)C)NC)C(=O)NC(CC(N)=O)C(=O)NC5C(=O)NC3C(=O)NC(C(=O)NC(C(=O)O)c5cc(O)cc(O)c5-c5cc3ccc5O)C(OC3CC(C)(N)C(O)C(C)O3)c3ccc(cc3)O4)OC(CO)C(O)C2O)OC(C)C1O (stereo not drawn)
Result block: 8

Query block: Suppose we examine the compound CNC(CC(C)C)C(=O)NC1C(=O)NC(CC(N)=O)C(=O)NC2C(=O)NC3C(=O)NC(C(=O)NC(C(=O)NCc4ccc(F)cc4)c4cc(O)cc(O)c4-c4cc3ccc4O)C(O)c3ccc(c(Cl)c3)Oc3cc2cc(c3OC2OC(CO)C(O)C(O)C2OC2CC(C)(N)C(O)C(C)O2)Oc2ccc(cc2Cl)C1O (stereo not drawn) ; what MIC 3798 S. aureus (GISA) value has been reported?
Result block: 4

Query block: So what's the measured MIC 3798 S. aureus (GISA) for this one? CCCCc1ccc(CN[C@@H](CCCN)C(=O)NC2(C)CC(OC3C(Oc4c5cc6cc4Oc4ccc(cc4Cl)C(O)C(NC(=O)C(CC(C)C)NC)C(=O)NC(CC(N)=O)C(=O)NC6C(=O)NC4C(=O)NC(C(=O)NC(C(=O)O)c6cc(O)cc(O)c6-c6cc4ccc6O)C(OC4CC(C)(N)C(O)C(C)O4)c4ccc(cc4)O5)OC(CO)C(O)C3O)OC(C)C2O)cc1 (stereo partly drawn)
Result block: 4

* * *

Hi there, I'd appreciate the recorded MIC 3798 S. aureus (GISA) for every entry that follows.
System: 3798 S. aureus (GISA)
Test: MIC, broth microdilution in Meuller-Hinton broth (NCCLS)
Assay type: cell-based, Staphylococus aureus
Conditions: glycopeptides-intermediate clinical isolate
Respond numerically; units are µg/mL and should not be typed.

Query block: // lookup MIC 3798 S. aureus (GISA) for CNC(CC(C)C)C(=O)NC1C(=O)NC(CC(N)=O)C(=O)NC2C(=O)NC3C(=O)NC(C(=O)NC(C(=O)O)c4cc(O)cc(O)c4-c4cc3ccc4O)C(O)c3ccc(c(Cl)c3)Oc3cc2cc(c3OC2OC(CO)C(O)C(O)C2OC2CC(C)(NC(=O)CNc3ccc4ccccc4n3)C(O)C(C)O2)Oc2ccc(cc2Cl)C1O (stereo not drawn)
Result block: 8

Query block: Form field: reported MIC 3798 S. aureus (GISA) of CCCCOc1ccc(CNCC(=O)NC2(C)CC(OC3C(Oc4c5cc6cc4Oc4ccc(cc4Cl)C(O)C4NC(=O)C(NC(=O)C6NC(=O)C(CC(N)=O)NC(=O)C(NC(=O)C(CC(C)C)NC)C(O)c6ccc(c(Cl)c6)O5)c5ccc(O)c(c5)-c5c(O)cc(O)cc5C(C(=O)O)NC4=O)OC(CO)C(O)C3O)OC(C)C2O)cc1 (stereo not drawn)
Result block: 1

Query block: # query: MIC 3798 S. aureus (GISA) of entry CCCCCCCCOc1ccc(CNCC(=O)NC2(C)CC(OC3C(Oc4c5cc6cc4Oc4ccc(cc4Cl)C(O)C(NC(=O)C(CC(C)C)NC)C(=O)NC(CC(N)=O)C(=O)NC6C(=O)NC4C(=O)NC(C(=O)NC(C(=O)O)c6cc(O)cc(O)c6-c6cc4ccc6O)C(OC4CC(C)(N)C(O)C(C)O4)c4ccc(cc4)O5)OC(CO)C(O)C3O)OC(C)C2O)cc1 (stereo not drawn)
Result block: 4
